Each entry below carries its recorded EC50 (read off the curve).
# TESTED ON: human properdin (human, UniProt P27918 28-469)
# Sequence (P27918 28-469 limits assumed): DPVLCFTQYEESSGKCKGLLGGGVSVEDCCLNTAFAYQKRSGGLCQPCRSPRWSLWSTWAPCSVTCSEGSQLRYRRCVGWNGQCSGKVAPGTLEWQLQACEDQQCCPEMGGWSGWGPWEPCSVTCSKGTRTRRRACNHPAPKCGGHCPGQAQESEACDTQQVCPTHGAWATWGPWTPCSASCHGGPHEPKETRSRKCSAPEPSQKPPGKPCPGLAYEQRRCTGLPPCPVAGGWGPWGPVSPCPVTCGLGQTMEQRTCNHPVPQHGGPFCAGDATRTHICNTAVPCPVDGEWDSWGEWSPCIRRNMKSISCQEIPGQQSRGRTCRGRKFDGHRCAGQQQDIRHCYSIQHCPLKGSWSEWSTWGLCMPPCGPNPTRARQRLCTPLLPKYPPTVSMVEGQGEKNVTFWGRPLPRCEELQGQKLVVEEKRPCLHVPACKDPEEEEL
# EXPERIMENT NOTES: ELISA, human properdin coated on the plate, OD 450 nm

BINDER: NMT22 (antibody, V domains shown) VH: EVQLVQSGAEVKKPGASVKVSCKASGYIFTNYPIHWVRQAPGQGLEWMGFIDPGGGYDESAQKFRGRVTLTADTSTSTVYMELSSLRSEDTAVYYCARRGGGYYLDYWGQGTTLTVSS VL: DIQMTQSPSSLSASVGDRVTITCRASQDISFFLNWYQQKPGKAPKLLIYYTSRYHSGVPSRFSGSGSGTDFTLTISSLQPEDFATYYCQHGSTLPYTFGQGTKLEIK
METRIC: EC50 (read off the curve)
VALUE OBSERVED: 0.3 to 0.4 nM
//
BINDER: NMT17 (antibody, V domains shown) VH: EVQLVQSGAEVKKPGASVKVSCKASGYIFTNYPIHWVRQAPGQGLEWMGFIDPGGGYDEPDERFRDRVTMTADTSTSTAYMELSSLRSEDTAVYYCARRGGGYYLDYWGQGTTVTVSS VL: DIQMTQSPSSLSASVGDRVTITCRASQDISFFLNWYQQKPGKAPKLLIYYTSRYHSGVPSRFSGSGSGTDFTLTISSLQPEDFATYYCQHGSTLPWTFGQGTKLEIK
METRIC: EC50 (read off the curve)
VALUE OBSERVED: ~0.3 nM
//
BINDER: NMT21 (antibody, V domains shown) VH: EVQLVQSGAEVKKPGASVKVSCKASGYIFTNYPIHWVRQAPGQGLEWMGFIDPGGGYDEYAQKFQGRVTLTADTSTSTAYMELSSLRSEDTAVYYCARRGGGYYLDYWGQGTTLTVSS VL: DIQMTQSPSSLSASVGDRVTITCRASQDISFFLNWYQQKPGKAPKLLIYYTSRYHSGVPSRFSGSGSGTDFTLTISSLQPEDFATYYCQHGQTLPWTFGQGTKLEIK
METRIC: EC50 (read off the curve)
VALUE OBSERVED: 0.3 to 0.4 nM
//
BINDER: NMT18 (antibody, V domains shown) VH: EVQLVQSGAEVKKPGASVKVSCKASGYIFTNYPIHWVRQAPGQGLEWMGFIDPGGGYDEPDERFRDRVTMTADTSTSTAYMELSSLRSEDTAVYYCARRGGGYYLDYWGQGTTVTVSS VL: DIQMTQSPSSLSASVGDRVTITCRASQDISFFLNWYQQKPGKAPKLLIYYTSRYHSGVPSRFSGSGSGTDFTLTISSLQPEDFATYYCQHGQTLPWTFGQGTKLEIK
METRIC: EC50 (read off the curve)
VALUE OBSERVED: ~0.3 nM

Attention now shifts to the item below.
Task: Request the reported EC50 (read off the curve) associated with NMT15 (antibody, V domains shown) VH: QVQLVQSAPEVAKPGTSVKMSCKASGYIFTNYPIHWVKQAPGQGLEWIGFIDPGGGYDEPDERFRDRATLTADKSTSTAYMELSSLRSEDTAIYYCARRGGGYYLDYWGQGTLVTVSS VL: DIQMTQSPSSLSASLGDRVTITCRASQDISFFLNWYQQKPDGTVKLLIYYTSRYHSGVPSRFSGSGSGTDFTLTISSLQPEDFATYFCQHGNTLPWTFGQGTKLEIK
Output: 0.2 to 0.3 nM
